The following molecules are shown together with reported melting point values.

Cc1cc(SCc2cccc3nc(-c4ccc(C(F)(F)F)cc4)sc23)ccc1CCC(=O)O 136 to 139 °C
Cn1c(-c2ccc(C(F)(F)F)cc2)nc2c(CSc3cccc(CC(=O)O)c3)cccc21 178 to 180 °C
O=C(O)Cc1csc2cc(OCc3cccc4nc(-c5ccc(C(F)(F)F)cc5)oc34)ccc12 215 to 216 °C
O=C(O)Cc1cccc(SCc2cccc3sc(-c4ccc(C(F)(F)F)cc4)nc23)c1 140 to 143 °C
Cc1cc(SCc2ccnc3[nH]c(-c4ccc(C(F)(F)F)cc4)nc23)ccc1OCC(=O)O 239 to 241 °C
Cc1cc(SCc2ccnc3sc(-c4ccc(C(F)(F)F)cc4)nc23)ccc1CCC(=O)O 65 to 70 °C

Input line: Recorded melting point for CCc1cc(SCCc2cccc3sc(-c4ccc(C(F)(F)F)cc4)nc23)ccc1OCC(=O)O , please?
Output line: 84 to 86 °C

Input line: Recorded melting point for CCc1cc(SCc2cccc3c2nc(-c2ccc(C(F)(F)F)cc2)n3C)ccc1OCC(=O)O , please?
Output line: 178 to 180 °C

meta.source: patent US7384965B2
